Would you mind telling me the reported IC50 of each entry?
# test system: FLT1 (VEGFR1) (Homo sapiens (Human), UniProt P17948)
# Sequence (P17948 27-1338): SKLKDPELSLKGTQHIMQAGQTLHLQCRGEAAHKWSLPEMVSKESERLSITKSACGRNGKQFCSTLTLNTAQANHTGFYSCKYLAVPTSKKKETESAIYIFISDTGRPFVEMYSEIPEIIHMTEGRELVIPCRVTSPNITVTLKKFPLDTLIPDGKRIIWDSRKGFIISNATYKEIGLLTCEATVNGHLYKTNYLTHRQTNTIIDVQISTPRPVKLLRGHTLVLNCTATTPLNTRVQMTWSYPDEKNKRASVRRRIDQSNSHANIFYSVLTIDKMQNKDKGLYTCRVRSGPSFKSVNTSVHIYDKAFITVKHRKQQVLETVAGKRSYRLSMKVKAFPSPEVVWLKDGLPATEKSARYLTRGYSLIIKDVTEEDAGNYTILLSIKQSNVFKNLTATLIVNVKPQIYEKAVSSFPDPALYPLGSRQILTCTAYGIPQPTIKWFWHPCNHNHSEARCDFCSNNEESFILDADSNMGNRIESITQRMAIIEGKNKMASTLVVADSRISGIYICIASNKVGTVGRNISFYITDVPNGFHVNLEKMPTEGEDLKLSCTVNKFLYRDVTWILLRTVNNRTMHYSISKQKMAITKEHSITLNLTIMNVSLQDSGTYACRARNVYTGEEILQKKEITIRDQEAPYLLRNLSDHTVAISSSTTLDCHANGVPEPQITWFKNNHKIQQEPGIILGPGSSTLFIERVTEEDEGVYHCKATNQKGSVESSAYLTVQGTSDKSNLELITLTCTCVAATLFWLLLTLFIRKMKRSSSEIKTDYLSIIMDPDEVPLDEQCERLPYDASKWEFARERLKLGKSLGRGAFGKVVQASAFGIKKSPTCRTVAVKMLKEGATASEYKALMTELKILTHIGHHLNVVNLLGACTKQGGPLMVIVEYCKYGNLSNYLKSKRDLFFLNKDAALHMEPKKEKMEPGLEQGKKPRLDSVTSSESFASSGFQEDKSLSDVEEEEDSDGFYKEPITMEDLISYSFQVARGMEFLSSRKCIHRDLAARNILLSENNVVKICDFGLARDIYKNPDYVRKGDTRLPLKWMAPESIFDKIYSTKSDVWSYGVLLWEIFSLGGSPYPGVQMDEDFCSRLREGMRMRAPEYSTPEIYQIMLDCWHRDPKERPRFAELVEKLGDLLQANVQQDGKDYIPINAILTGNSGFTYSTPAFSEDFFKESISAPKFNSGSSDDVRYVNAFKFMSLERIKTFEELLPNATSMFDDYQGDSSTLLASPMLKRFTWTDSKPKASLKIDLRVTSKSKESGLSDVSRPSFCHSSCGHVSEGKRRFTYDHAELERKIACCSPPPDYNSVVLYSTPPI
# procedure summary: Kinase inhibition, Mobility Shift Assay (VEGFR1)
# Type: biochemical

Observe how each entry below is paired with its result.
# molecule, IC50
measured = [
    ("CNC(=O)c1ccccc1Sc1ccc2c(/C=C/c3ccc(OC[C@H]4CCN(C)C4)cn3)n[nH]c2c1", "≤ 1 nM"),
    ("CNC(=O)c1ccccc1Sc1ccc2c(/C=C/c3ccc(OCC4CCN(C)C4)cn3)n[nH]c2c1 (stereo not shown)", "≤ 1 nM"),
    ("CNC(=O)c1ccccc1Sc1ccc2c(/C=C/c3cnn(CCCN4CCCC4)c3)n[nH]c2c1", "1 to 10 nM"),
    ("CNC(=O)c1ccccc1Sc1ccc2c(Nc3ccc(OCCN4CCCC4)cn3)n[nH]c2c1", "> 100 nM"),
    ("CNC(=O)c1ccccc1Sc1ccc2c(/C=C/c3ccnc(OCCN4CCCC4)c3)n[nH]c2c1", "1 to 10 nM"),
]

List IC50 for every entry below, keeping the order given.
1. CNC(=O)c1ccccc1Sc1ccc2c(/C=C/c3ccn(CCCN4CCCC4)n3)n[nH]c2c1
2. CNC(=O)c1ccccc1Sc1ccc2c(/C=C/c3cncc(OCCN4CCCC4)c3)n[nH]c2c1
3. CNC(=O)c1ccccc1Sc1ccc2c(NC(=O)NCCN3CCN(C)CC3)n[nH]c2c1
4. CCNC(=O)c1cccc(F)c1Sc1ccc2c(/C=C/c3cc(CCCN4CCCC4)ccn3)n[nH]c2c1
5. CNC(=O)c1ccccc1Sc1ccc2c(/C=C/c3ccc(OCC4CCCN4C)cn3)n[nH]c2c1 (stereo not shown)
6. CNC(=O)c1cccc(F)c1Sc1ccc2c(/C=C/c3ccc(OCCN4CCCC4)cn3)n[nH]c2c1
7. CNC(=O)c1ccc(F)cc1Sc1ccc2c(/C=C/c3ccc(OCCN4CCCC4)cn3)n[nH]c2c1

1 to 10 nM
10 to 100 nM
> 100 nM
10 to 100 nM
≤ 1 nM
1 to 10 nM
1 to 10 nM

List IC50 for every entry below, keeping the order given.
1. CNC(=O)c1ccccc1Sc1ccc2c(/C=C/c3ccc(O)cn3)n[nH]c2c1
2. CNC(=O)c1ccccc1Sc1ccc2c(/C=C/c3ccc(OCC4CCNC4)cn3)n[nH]c2c1 (stereo not shown)
3. CN(C)Cc1ccc(/C=C/c2n[nH]c3cc(Sc4ccccc4C(=O)NC4CC4)ccc23)nc1
4. CNC(=O)c1ccccc1Sc1ccc2c(/C=C/c3cccc(OCCN4CCCC4)c3)n[nH]c2c1
5. CCNC(=O)c1cc(F)ccc1Sc1ccc2c(/C=C/c3ccc(CN4CCCC4)cn3)n[nH]c2c1
6. CNC(=O)c1ccccc1Sc1ccc2c(/C=C/c3cc(OCCN4CCCC4)ccn3)n[nH]c2c1

["1 to 10 nM", "≤ 1 nM", "≤ 1 nM", "1 to 10 nM", "1 to 10 nM", "10 to 100 nM"]

List IC50 for every entry below, keeping the order given.
1. O=C(NC1CC1)c1ccccc1Sc1ccc2c(/C=C/c3cccc(CCCN4CCCC4)n3)n[nH]c2c1
2. CNC(=O)c1ccccc1Sc1cnc2c(/C=C/c3ccccn3)n[nH]c2c1
3. O=C(NC1CC1)c1ccccc1Sc1ccc2c(/C=C/c3ccc(OCCN4CCCC4)cn3)n[nH]c2c1
4. CNC(=O)c1ccccc1Sc1ccn2c(/C=C/c3ccccn3)ncc2c1

1: 1 to 10 nM; 2: 10 to 100 nM; 3: 1 to 10 nM; 4: > 100 nM

List IC50 for every entry below, keeping the order given.
1. CNC(=O)c1ccccc1Sc1ccc2c(/C=C/c3ccc(OCC4CCCN4)cn3)n[nH]c2c1 (stereo not shown)
2. CNC(=O)c1ccccc1Sc1ccc2c(/C=C/c3ccc(OC[C@@H]4CCN(C)C4)cn3)n[nH]c2c1
3. CNC(=O)c1cc(F)ccc1Sc1ccc2c(/C=C/c3ccc(OCCN4CCCC4)cn3)n[nH]c2c1
4. O=C(NC1CC1)c1ccccc1Sc1ccc2c(/C=C/c3cc(CN4CCCC4)ccn3)n[nH]c2c1
5. O=C(NC1CC1)c1ccccc1Sc1ccc2c(/C=C/c3cccc(CN4CCCC4)n3)n[nH]c2c1

1. 1 to 10 nM
2. ≤ 1 nM
3. 1 to 10 nM
4. 1 to 10 nM
5. 1 to 10 nM

List IC50 for every entry below, keeping the order given.
1. CNC(=O)c1ccccc1Sc1ccc2c(/C=C/c3ccc(OCCN4CCCC4)cn3)n[nH]c2c1
2. CNC(=O)c1ccccc1Sc1ccc2c(/C=C/c3ccc(OCCN4CCOCC4)cn3)n[nH]c2c1
3. CNC(=O)c1ccccc1Sc1ccc2c(/C=C/c3ccc(OCCC4CCN(C)CC4)cn3)n[nH]c2c1
4. O=C(NC1CC1)c1ccccc1Sc1ccc2c(/C=C/c3cc(CCCN4CCCC4)ccn3)n[nH]c2c1

["≤ 1 nM", "≤ 1 nM", "≤ 1 nM", "1 to 10 nM"]

---

# test system: KDR (VEGFR2) (Homo sapiens (Human))
# Sequence (P35968 790-1356): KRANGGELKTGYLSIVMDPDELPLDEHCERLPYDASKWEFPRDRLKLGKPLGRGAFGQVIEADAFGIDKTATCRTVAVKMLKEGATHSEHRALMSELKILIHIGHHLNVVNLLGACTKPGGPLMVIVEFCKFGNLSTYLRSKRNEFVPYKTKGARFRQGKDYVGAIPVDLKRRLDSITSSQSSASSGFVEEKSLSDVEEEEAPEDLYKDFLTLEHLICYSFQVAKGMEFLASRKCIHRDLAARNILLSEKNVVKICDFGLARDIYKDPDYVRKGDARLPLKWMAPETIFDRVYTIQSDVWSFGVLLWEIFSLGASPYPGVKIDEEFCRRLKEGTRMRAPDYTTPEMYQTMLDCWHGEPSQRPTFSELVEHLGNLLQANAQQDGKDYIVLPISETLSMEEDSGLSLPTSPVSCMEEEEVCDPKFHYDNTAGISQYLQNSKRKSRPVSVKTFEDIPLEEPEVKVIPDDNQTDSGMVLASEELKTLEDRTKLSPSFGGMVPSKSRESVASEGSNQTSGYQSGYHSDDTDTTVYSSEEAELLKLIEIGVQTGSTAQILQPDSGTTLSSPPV
# procedure summary: Kinase inhibition, Mobility Shift Assay (VEGFR2)
# Format: biochemical
# Procedure: This assay directly monitored the ability of compounds to inhibit kinase phosphorylation by measuring non-phosphorylated and phosphorylated substrates in kinase reactions by using Mobility Shift Assays/IMAP™ analysis. Add the kinase and DTT to 1× kinase buffer to form a 2.5× kinase solution; transfer 10 μL of 2.5× kinase solution to a 384-well reaction plate and add 1× kinase buffer to negative control wells. […] Read the conversion ratio data on CaliperEZ Reader II. […]
readout name: IC50

Observe how each entry below is paired with its result.
# chemical smiles, test system, observed result
data = [
    ("CCNC(=O)c1cccc(F)c1Sc1ccc2c(/C=C/c3cccc(CN4CCCC4)n3)n[nH]c2c1", "KDR (VEGFR2) (Homo sapiens (Human))", "> 100 nM"),
    ("CCNC(=O)c1cccc(F)c1Sc1ccc2c(/C=C/c3cnn(CCCN4CCCC4)c3)n[nH]c2c1", "KDR (VEGFR2) (Homo sapiens (Human))", "10 to 100 nM"),
    ("CNC(=O)c1ccccc1Sc1ccc2c(/C=C/c3ccn(CCN4CCCC4)n3)n[nH]c2c1", "KDR (VEGFR2) (Homo sapiens (Human))", "1 to 10 nM"),
]

List IC50 for every entry below, keeping the order given.
1. O=C(NC1CC1)c1cccc(F)c1Sc1ccc2c(/C=C/c3cc(CCCN4CCCC4)ccn3)n[nH]c2c1
2. CNC(=O)c1ccccc1Sc1ccc2c(C#Cc3cccc(OCCN4CCCC4)n3)n[nH]c2c1
3. O=C(NC1CC1)c1ccccc1Sc1ccc2c(/C=C/c3cccc(CN4CCCC4)n3)n[nH]c2c1
4. CNC(=O)c1ccccc1Sc1ccc2c(/C=C/c3cnn(CCCN4CCCC4)c3)n[nH]c2c1
5. CNC(=O)c1ccccc1Sc1ccc2c(/C=C/c3ccnn3CCN3CCCC3)n[nH]c2c1
6. O=C(NC1CC1)c1cccc(F)c1Sc1ccc2c(/C=C/c3ccc(CN4CCCC4)cn3)n[nH]c2c1

["10 to 100 nM", "10 to 100 nM", "1 to 10 nM", "1 to 10 nM", "> 100 nM", "1 to 10 nM"]

List IC50 for every entry below, keeping the order given.
1. O=C(NC1CC1)c1ccccc1Sc1ccc2c(/C=C/c3ccc(OCCN4CCCC4)cn3)n[nH]c2c1
2. CNC(=O)c1ccccc1Sc1ccc2c(/C=C/c3ccc(OCCN4CCCC4)cn3)n[nH]c2c1
3. CCNC(=O)c1cccc(F)c1Sc1ccc2c(/C=C/c3cccc(CCN4CCCC4)n3)n[nH]c2c1
4. CCNC(=O)c1cc(F)ccc1Sc1ccc2c(/C=C/c3cnn(CCCN4CCCC4)c3)n[nH]c2c1
5. O=C(NC1CC1)c1cc(F)ccc1Sc1ccc2c(/C=C/c3cc(CCN4CCCC4)ccn3)n[nH]c2c1
6. CNC(=O)c1ccccc1Sc1ccc2c(/C=C/c3ccnc(OCCN4CCCC4)c3)n[nH]c2c1
7. O=C(NC1CC1)c1cc(F)ccc1Sc1ccc2c(/C=C/c3cccc(CN4CCCC4)n3)n[nH]c2c1
8. CCNC(=O)c1cccc(F)c1Sc1ccc2c(/C=C/c3cc(CCCN4CCCC4)ccn3)n[nH]c2c1

1. 1 to 10 nM
2. 1 to 10 nM
3. 10 to 100 nM
4. ≤ 1 nM
5. 10 to 100 nM
6. 1 to 10 nM
7. 1 to 10 nM
8. 10 to 100 nM

---

# System: melanin
# procedure summary: Binding capacity of compounds to melanin
# Assay type: in vitro ADME
# run conditions: Sepia officinalis (cuttlefish), melanin suspension (1 mg/mL); 1 mg/mL melanin suspension in PBS pH 7.4, 2 μM compound, 2 h at 37° C.; read-out: Fu % (percentage of free drug, not bound to melanin)
readout name: fraction unbound at 2 h, 2 μM

# compound, test system, fraction unbound at 2 h, 2 μM
measured = [
    ("CNC(=O)c1ccccc1Sc1ccc2c(/C=C/c3ccc(OCCN4CCCC4)nc3)n[nH]c2c1 [Compound I-19]", "melanin", "0.01 to 0.05"),
    ("CNC(=O)c1ccccc1Sc1ccc2c(/C=C/c3ccc(OCC4CCNC4)cn3)n[nH]c2c1 (stereo not drawn) [Compound I-7]", "melanin", "> 0.05"),
    ("O=C(NC1CC1)c1cccc(F)c1Sc1ccc2c(/C=C/c3ccc(CN4CCCC4)cn3)n[nH]c2c1 [Compound I-67]", "melanin", "> 0.05"),
]

List fraction unbound at 2 h, 2 μM for every entry below, keeping the order given.
1. CCN(CC)Cc1ccc(/C=C/c2n[nH]c3cc(Sc4ccc(F)cc4C(=O)NC)ccc23)nc1 [Compound I-93]
2. CNC(=O)c1c(F)cccc1Sc1ccc2c(/C=C/c3ccc(OCCN4CCCC4)cn3)n[nH]c2c1 [Compound I-36]
3. CNC(=O)c1ccccc1Sc1ccc2c(/C=C/c3cc(OCCN4CCCC4)ccn3)n[nH]c2c1 [Compound I-20]
4. CCNC(=O)c1cc(F)ccc1Sc1ccc2c(/C=C/c3cnn(CCCN4CCCC4)c3)n[nH]c2c1 [Compound I-104]
5. CCN(CC)Cc1ccc(/C=C/c2n[nH]c3cc(Sc4cc(F)ccc4C(=O)NC4CC4)ccc23)nc1 [Compound I-83]
6. CN1CCC(CCOc2ccc(/C=C/c3n[nH]c4cc(Sc5ccccc5C(=O)NC5CC5)ccc34)nc2)CC1 [Compound I-42]

0.01 to 0.05
> 0.05
0.01 to 0.05
> 0.05
> 0.05
0.01 to 0.05

List fraction unbound at 2 h, 2 μM for every entry below, keeping the order given.
1. CN(C)CCOc1ccc(/C=C/c2n[nH]c3cc(Sc4ccccc4C(=O)NC4CC4)ccc23)nc1 [Compound I-51]
2. CCN(CC)Cc1ccc(/C=C/c2n[nH]c3cc(Sc4ccccc4C(=O)NCCF)ccc23)nc1 [Compound I-98]
3. CCN(CC)CCc1ccc(/C=C/c2n[nH]c3cc(Sc4ccc(F)cc4C(=O)NC4CC4)ccc23)nc1 [Compound I-109]
4. CNC(=O)c1ccccc1Sc1ccc2c(/C=C/c3ccnn3CCN3CCCC3)n[nH]c2c1 [Compound I-25]

0.01 to 0.05
> 0.05
> 0.05
> 0.05

List fraction unbound at 2 h, 2 μM for every entry below, keeping the order given.
1. CNC(=O)c1ccccc1Sc1ccc2c(/C=C/c3ccc(OCC4CCCN4)cn3)n[nH]c2c1 (stereo not drawn) [Compound I-14]
2. O=C(NC1CC1)c1ccccc1Sc1ccc2c(/C=C/c3cnn(CCCN4CCCC4)c3)n[nH]c2c1 [Compound I-43]

1. 0.01 to 0.05
2. 0.01 to 0.05

The reported measurements were obtained from patent US20260049071A1.
